target-or-system: human MC3R (human, UniProt P41968 1-323)
Sequence (P41968 whole entry): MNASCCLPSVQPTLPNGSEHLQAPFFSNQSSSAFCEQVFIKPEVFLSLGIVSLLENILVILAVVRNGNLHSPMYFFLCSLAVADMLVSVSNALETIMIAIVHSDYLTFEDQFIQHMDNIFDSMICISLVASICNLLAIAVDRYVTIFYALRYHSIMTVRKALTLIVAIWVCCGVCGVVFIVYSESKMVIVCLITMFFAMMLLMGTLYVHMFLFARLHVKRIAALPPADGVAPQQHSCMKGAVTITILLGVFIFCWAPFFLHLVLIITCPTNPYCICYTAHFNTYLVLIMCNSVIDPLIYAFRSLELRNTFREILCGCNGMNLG
assay-info: cell-based or functional assay
Non-standard residues stand in square brackets, D forms with d. Nle = CCCC[C@H](N)C(=O)O
assay-readout: MC3R selectivity (relative to MC4R)
Give bare numbers.

For the binder shown here, H-YV[Nle][dA]HFR[dW]DRF-NH2 (SMILES CCCC[C@H](NC(=O)[C@@H](NC(=O)[C@@H](N)Cc1ccc(O)cc1)C(C)C)C(=O)N[C@H](C)C(=O)N[C@@H](Cc1c[nH]cn1)C(=O)N[C@@H](Cc1ccccc1)C(=O)N[C@@H](CCCNC(=N)N)C(=O)N[C@H](Cc1c[nH]c2ccccc12)C(=O)N[C@@H](CC(=O)O)C(=O)N[C@@H](CCCNC(=N)N)C(=O)N[C@@H](Cc1ccccc1)C(N)=O) [CTX-1119] , give the reported MC3R selectivity (relative to MC4R).
24
